Examples of compounds with documented kinematic viscosity follow.
Details: 303.15 K; 101.33 kPa; Liquid; Capillary tube (Ostwald / Ubbelohde) method

compound	kinematic viscosity (m2/s)
COC(=O)Oc1ccccc1 [methyl phenyl carbonate]	3.2e-06
CO	6.21e-07
COC(=O)OC [dimethyl carbonate]	5.08e-07
COc1ccccc1	8.99e-07

* * *

Settings: 288.15 K; 101.33 kPa; Liquid; Capillary tube (Ostwald / Ubbelohde) method
quantity_kind: kinematic viscosity (m2/s)

compound	measured_value
COC(=O)Oc1ccccc1 [methyl phenyl carbonate]	5.14e-06
COC(=O)OC [dimethyl carbonate]	6.05e-07
COc1ccccc1	1.12e-06
CO	7.51e-07

* * *

Settings: 308.15 K; 101.33 kPa; Liquid; Vibrating tube method

molecule	mass density [kg/m3]
COC(=O)OC [dimethyl carbonate]	1049.85
COC(=O)Oc1ccccc1 [methyl phenyl carbonate]	1133.26
CO [methanol]	777.29
COc1ccccc1 [anisole]	978.34

* * *

Conditions: 313.15 K; 101.33 kPa; Liquid; Vibrating tube method
Examples of compounds with documented mass density follow.

compound	mass density, kg/m3
COC(=O)Oc1ccccc1 [methyl phenyl carbonate]	1128.11
CO [methanol]	772.51
Oc1ccccc1 [phenol]	1058.51
COC(=O)OC [dimethyl carbonate]	1043.04
COc1ccccc1 [anisole]	973.62

* * *

Conditions: 318.15 K; 101.33 kPa; Liquid; Vibrating tube method
Examples of compounds with documented mass density follow.
quantity_kind: mass density (kg/m3)

compound	measured_value
COC(=O)Oc1ccccc1 [methyl phenyl carbonate]	1122.97
CO	767.69
COC(=O)OC [dimethyl carbonate]	1036.51
COc1ccccc1	969.99

* * *

Experiment: refractive index (Na D-line) (dimensionless)
Settings: 303.15 K; 101.33 kPa; Liquid; Standard Abbe refractometry
Examples of molecules with documented refractive index follow.

molecule	refractive index
COc1ccccc1 [anisole]	1.5117
COC(=O)OC [dimethyl carbonate]	1.364
CO [methanol]	1.3245
COC(=O)Oc1ccccc1 [methyl phenyl carbonate]	1.492

* * *

Settings: 293.15 K; 101.33 kPa; Liquid; Vibrating tube method
Examples of compounds with documented mass density follow.
quantity_kind: mass density (kg/m3)

compound	measured_value
COC(=O)Oc1ccccc1 [methyl phenyl carbonate]	1148.74
COC(=O)OC [dimethyl carbonate]	1070.18
COc1ccccc1 [anisole]	991.95
CO [methanol]	791.46

* * *

Conditions: 313.15 K; 101.33 kPa; Liquid; Capillary tube (Ostwald / Ubbelohde) method
quantity_kind: kinematic viscosity (m2/s)

compound	quantity_kind	measured_value
COC(=O)Oc1ccccc1 [methyl phenyl carbonate]	kinematic viscosity	2.49e-06
COC(=O)OC [dimethyl carbonate]	kinematic viscosity	4.56e-07
COc1ccccc1	kinematic viscosity	7.89e-07
CO	kinematic viscosity	5.49e-07

* * *

Examples of compounds with documented refractive index follow.
Test: refractive index (Na D-line) (dimensionless)
Conditions: 318.15 K; 101.33 kPa; Liquid; Standard Abbe refractometry

compound	refractive index
CO [methanol]	1.3188
COc1ccccc1 [anisole]	1.5041
COC(=O)OC [dimethyl carbonate]	1.357
COC(=O)Oc1ccccc1 [methyl phenyl carbonate]	1.4853

* * *

Examples of compounds with documented kinematic viscosity follow.
Settings: 308.15 K; 101.33 kPa; Liquid; Capillary tube (Ostwald / Ubbelohde) method
quantity_kind: kinematic viscosity (m2/s)

compound	measured_value
COc1ccccc1	8.39e-07
COC(=O)OC [dimethyl carbonate]	4.76e-07
CO	5.79e-07
COC(=O)Oc1ccccc1 [methyl phenyl carbonate]	2.82e-06
